assay: Quantitative highthroughput screen to assess conditional lethalithy of P12 Ichikawa cells grown in RPMI1640 with untreated serum (RPMI+s) (AID 1963881); conditions: ATP luminescence, 48 h; viability; series mostly up to 45.8 µM; note: nearly all actives have a fitted effect of over 35% in size
Results filed as inconclusive are left out. The source made the active and inactive calls. Calls come from the whole dose curve; as a rule, active = well fitted cell-killing curve with a large enough effect; inconclusive = small, poorly fitted or top-dose-only effect; inactive = flat fitted curve, though single readings scatter.
Mark one answer only. Choices: active, inactive

Illustrative cases are given below, each with its answer.
CC1=NN(c2ccccc2)C(=O)C1: inactive
COc1cc2nc(N3CCN(C(=O)C4COc5ccccc5O4)CC3)nc(N)c2cc1OC (stereo unspecified): inactive
CNCCCC12CCC(c3ccccc31)c1ccccc12: active
CC(C)CC(=O)Nc1n[nH]c2c1CN(C(=O)C1CCN(C)CC1)C2(C)C: active
N=c1nc(N2CCCCC2)cc(N)n1O: inactive

Enquiry: What was the test verdict on `CC[C@H]1CN2CCc3cc(OC)c(OC)cc3[C@H]2C[C@@H]1C[C@@H]1NCCc2cc(OC)c(OC)cc21` ?
Return: active

Enquiry: What was the test verdict on `CCC(=C(c1ccccc1)c1ccc(OCCN(C)C)cc1)c1ccccc1` ?
Return: inactive

Enquiry: What was the test verdict on `O=P(O)(O)C(O)(Cc1cccnc1)P(=O)(O)O` ?
Return: inactive

Enquiry: What was the test verdict on CCC(c1ccc(O)cc1)C(CC)c1ccc(O)cc1 (stereo unspecified) ?
Return: inactive

Enquiry: What was the test verdict on `C=CC(=O)Nc1cc(NC(=O)c2ccc(C)c(NC(=O)c3ccno3)c2)cc(C(F)(F)F)c1` ?
Return: inactive

Enquiry: What was the test verdict on `CC(C)(CO)[C@@H](O)C(=O)NCCC(=O)O` ?
Return: inactive
